Source: patent US5100907A

Tested on: Aspergillus niger
assay_remarks: Antimicrobial study against Aspergillus niger (mold)
Type: cell-based
assay_context: Day 1; methylolated C8/10 10,800 ppm, methylolated lauric 11,400 ppm, DMDMH 3,000 ppm, others 14,700 ppm
Protocol: The antimicrobial properties of typical esters (I) and (Ia) were tested by minimum inhibitory concentration (MIC) tests, along with certain known substances, against […] strains of organisms: a mold, Aspergillus niger; a gram-positive bacteria, Staphylococcus aureus; and two gram-negative bacteria, Escherichia coli and Pseudomonas aeruginosa. […] The tests entailed contaminating a preexisting micro-colony with a known quantity (ppm, concentration) of test material. […]
result_type: Colony Count

I'm hoping you can list Colony Count for every compound here, please.
1. CCCCCCCCCCCC(=O)OCCN1C(=O)N(CO)C(=O)C1(C)C
2. CCCCCCCCCCCCCCCCCC(=O)OCCOC(=O)CCCCCCCCCCCCCCCCC [EGDS, ethylene glycol distearate, reference compound]
3. CCCCCCCC/C=C\CCCCCCCC(=O)OCCN1C(=O)N(CO)C(=O)C1(C)C
4. CC1(C)C(=O)N(CO)C(=O)N1CO [DMDMH (iv), reference compound]
5. CCCCCCCCCCCCOS(=O)(=O)[O-].[Na+] [SLS, Sodium lauryl sulfate, reference compound]
6. CCCCCCCCCCCC(=O)OCCN1C(=O)NC(=O)C1(C)C

1: 2 × 1,000; 2: 500 × 1,000; 3: 0.5 × 1,000; 4: < 0.03 × 1,000; 5: 2,000 × 1,000; 6: 200 × 1,000
